# method: Solubility test in organic solvents
# Format: physicochemical
# Parameters: key: X: not dissolved; ◯: partially dissolved; ⊚: completely dissolved
# assayContext: 1 mg, room temperature (20 degrees Celsius), ethyl acetate
quantityKind: Solubility in ethyl acetate

CC(C)(C)C(=O)[CH-]C(=O)C(C)(C)C.CC(C)(C)C(=O)[CH-]C(=O)C(C)(C)C.CC(C)(C)C(=O)[CH-]C(=O)C(C)(C)C.[Tb+3] [Tb(TMHD)3, reference compound] :: X
CC(C)(C)C(=O)C=C([O-])C(C)(C)C.CC(C)(C)C(=O)C=C([O-])C(C)(C)C.CC(C)(C)C(=O)C=C([O-])C(C)(C)C.CS(C)=O.[Tb+3] [Tb(TMHD)3-DMSO] :: ⊚
CC(C)(C)C(=O)C=C([O-])C(C)(C)C.CC(C)(C)C(=O)C=C([O-])C(C)(C)C.CC(C)(C)C(=O)C=C([O-])C(C)(C)C.O=S(c1ccccc1)c1ccccc1.[Tb+3] [Tb(TMHD)3-DPSO] :: ⊚
CC(C)(C)C(=O)C=C([O-])C(C)(C)C.CC(C)(C)C(=O)C=C([O-])C(C)(C)C.CC(C)(C)C(=O)C=C([O-])C(C)(C)C.CS(=O)c1ccccc1.[Tb+3] [Tb(TMHD)3-MPSO] :: ⊚

----------
# method: Solubility test in organic solvents
# Format: physicochemical
# Design: key: X: not dissolved; ◯: partially dissolved; ⊚: completely dissolved
# assayContext: 1 mg, room temperature (20 degrees Celsius), toluene
quantityKind: Solubility in toluene

CC(C)(C)C(=O)[CH-]C(=O)C(C)(C)C.CC(C)(C)C(=O)[CH-]C(=O)C(C)(C)C.CC(C)(C)C(=O)[CH-]C(=O)C(C)(C)C.[Tb+3] [Tb(TMHD)3, reference compound] :: ◯
CC(C)(C)C(=O)C=C([O-])C(C)(C)C.CC(C)(C)C(=O)C=C([O-])C(C)(C)C.CC(C)(C)C(=O)C=C([O-])C(C)(C)C.CS(=O)c1ccccc1.[Tb+3] :: ⊚
CC(C)(C)C(=O)C=C([O-])C(C)(C)C.CC(C)(C)C(=O)C=C([O-])C(C)(C)C.CC(C)(C)C(=O)C=C([O-])C(C)(C)C.CS(C)=O.[Tb+3] :: ⊚
CC(C)(C)C(=O)C=C([O-])C(C)(C)C.CC(C)(C)C(=O)C=C([O-])C(C)(C)C.CC(C)(C)C(=O)C=C([O-])C(C)(C)C.O=S(c1ccccc1)c1ccccc1.[Tb+3] :: ⊚

----------
# method: Solubility test in organic solvents
# Format: physicochemical
# Design: key: X: not dissolved; ◯: partially dissolved; ⊚: completely dissolved
# assayContext: 1 mg, room temperature (20 degrees Celsius), methyl cyclohexane
# Experimental: 1 mg of Tb(TMHD)3—DMSO, Tb(TMHD)3—MPSO, Tb(TMHD)3—DPSO, Tb(TMHD)3, Tb(TMHD)3—OPNP are each dissolved under room temperature (20 degrees Celsius) in the following organic solvent: dichlormethane, acetonitrile, toluene, ethyl acetate, hexane, methyl cyclohexane methanol, methy ethyl ketone ether.
quantityKind: Solubility in methylcyclohexane

CC(C)(C)C(=O)C=C([O-])C(C)(C)C.CC(C)(C)C(=O)C=C([O-])C(C)(C)C.CC(C)(C)C(=O)C=C([O-])C(C)(C)C.CS(=O)c1ccccc1.[Tb+3] :: ⊚
CC(C)(C)C(=O)C=C([O-])C(C)(C)C.CC(C)(C)C(=O)C=C([O-])C(C)(C)C.CC(C)(C)C(=O)C=C([O-])C(C)(C)C.O=S(c1ccccc1)c1ccccc1.[Tb+3] :: ⊚
CC(C)(C)C(=O)[CH-]C(=O)C(C)(C)C.CC(C)(C)C(=O)[CH-]C(=O)C(C)(C)C.CC(C)(C)C(=O)[CH-]C(=O)C(C)(C)C.[Tb+3] [Tb(TMHD)3, reference compound] :: X
CC(C)(C)C(=O)C=C([O-])C(C)(C)C.CC(C)(C)C(=O)C=C([O-])C(C)(C)C.CC(C)(C)C(=O)C=C([O-])C(C)(C)C.CS(C)=O.[Tb+3] :: ⊚
